Consider the following compounds and their measured pIC50 readings.
measurement.description: Antiproliferative activity against human MRC5 cells assessed as reduction in cell viability
Assay type: toxicity, cell-based
Remember, pIC50 is on a log scale: it is -log10 of the molar concentration.

CCOC(=O)c1cc2cccc(OCc3cn(CCO[C@@H]4O[C@@H]5O[C@@]6(C)CC[C@H]7[C@H](C)CC[C@@H]([C@H]4C)[C@@]57OO6)nn3)c2oc1=O : 6.37
CCOC(=O)c1cc2cccc(OCc3cn(CCCO[C@@H]4O[C@@H]5O[C@@]6(C)CC[C@H]7[C@H](C)CC[C@@H]([C@H]4C)[C@@]57OO6)nn3)c2oc1=O : 6.37
Cc1c(C)c2cccc(OCc3cn(CCO[C@@H]4O[C@@H]5O[C@@]6(C)CC[C@H]7[C@H](C)CC[C@@H]([C@H]4C)[C@@]57OO6)nn3)c2oc1=O : 6.37
Cc1cc(=O)oc2c(OCc3cn(CCCO[C@@H]4O[C@@H]5O[C@@]6(C)CC[C@H]7[C@H](C)CC[C@@H]([C@H]4C)[C@@]57OO6)nn3)cccc12 : 6.37

--- query ---
Q: Give pIC50 for Cc1c(C)c2cccc(OCc3cn(CCCO[C@@H]4O[C@@H]5O[C@@]6(C)CC[C@H]7[C@H](C)CC[C@@H]([C@H]4C)[C@@]57OO6)nn3)c2oc1=O
Ans: 6.37

* * *

System: HL-60
measurement.description: Anticancer activity against human HL-60 cells
Format: functional, cell-based
Consider the following molecules and their measured pIC50 readings.
Remember, pIC50 is on a log scale: it is -log10 of the molar concentration.

C[C@H]1[C@@H](OCCc2cn(-c3cccc(C(=O)N4CCCCC4)c3)nn2)O[C@@H]2O[C@@]3(C)CC[C@H]4[C@H](C)CC[C@@H]1[C@@]24OO3 : 5.24
Cc1c2ccncc2c(C)c2c1[nH]c1ccccc12 [ELLIPTECINE] : 5.77
C[C@H]1[C@@H](O)O[C@@H]2O[C@@]3(C)CC[C@H]4[C@H](C)CC[C@@H]1[C@@]24OO3 [ARTENIMOL] : 4.40

Q: Tell me pIC50 of CC1CCNC(C(=O)c2ccc(-n3cc(CO[C@H]4O[C@@H]5O[C@@]6(C)CC[C@H]7[C@H](C)CC[C@@H]([C@H]4C)[C@@]57OO6)nn3)cc2)C1 (some centres undefined) when tested on HL-60.
Ans: 5.60

* * *

Consider the following molecules and their measured IC50 readings.
measurement.description: Cytotoxicity against human HEK293 cells
Type: toxicity, cell-based

C[C@H]1[C@@H](OCc2cn(-c3ccccc3C(=O)/C=C/c3ccccc3C(F)(F)F)nn2)O[C@@H]2O[C@@]3(C)CC[C@H]4[C@H](C)CC[C@@H]1[C@@]24OO3 : > 100 mg/L

--- query ---
Q: Give IC50 for C[C@H]1[C@@H](OCc2cn(-c3ccc(O)cc3)nn2)O[C@@H]2O[C@@]3(C)CC[C@H]4[C@H](C)CC[C@@H]1[C@@]24OO3
Ans: > 100 mg/L

* * *

Consider the following molecules and their measured IC50 readings.
System: MDA-MB-231
measurement.description: Antiproliferative activity against human MDA-MB-231 cells assessed as reduction in cell viability
Format: functional, cell-based
Could you give me the number in nM? Just the number is fine.

The following molecules have reported results that may help.
Cc1c(Cl)c(=O)oc2c(OCc3cn(CCCO[C@@H]4O[C@@H]5O[C@@]6(C)CC[C@H]7[C@H](C)CC[C@@H]([C@H]4C)[C@@]57OO6)nn3)cccc12 : 430
Cc1c(C)c2cccc(OCc3cn(CCO[C@@H]4O[C@@H]5O[C@@]6(C)CC[C@H]7[C@H](C)CC[C@@H]([C@H]4C)[C@@]57OO6)nn3)c2oc1=O : 430
CCOC(=O)c1cc2ccc(OCCn3cc(CO[C@H]4O[C@@H]5O[C@@]6(C)CC[C@H]7[C@H](C)CC[C@@H]([C@H]4C)[C@@]57OO6)nn3)cc2oc1=O : 430

Q: Tell me IC50 of Cc1cc(=O)oc2cc(OCCn3cc(CO[C@H]4O[C@@H]5O[C@@]6(C)CC[C@H]7[C@H](C)CC[C@@H]([C@H]4C)[C@@]57OO6)nn3)ccc12 when tested on MDA-MB-231.
Ans: 430

Q: Tell me IC50 of COc1cccc2c1C(=O)c1c(O)c3c(c(O)c1C2=O)C[C@@](O)(C(=O)CO)C[C@@H]3O[C@H]1C[C@H](N)[C@H](O)[C@H](C)O1 [DOXORUBICIN] when tested on MDA-MB-231.
Ans: 50
